experimental system: N-methyl-D-aspartate (NMDA) Glutamate Receptor 1A/2B (NMDAR (1A/2B)) (Homo sapiens, UniProt Q05586+Q13224)
Construct: DiscoverX (SAFETYscan contract panel)
Sequence (Q13224 27-1484, other chains not shown): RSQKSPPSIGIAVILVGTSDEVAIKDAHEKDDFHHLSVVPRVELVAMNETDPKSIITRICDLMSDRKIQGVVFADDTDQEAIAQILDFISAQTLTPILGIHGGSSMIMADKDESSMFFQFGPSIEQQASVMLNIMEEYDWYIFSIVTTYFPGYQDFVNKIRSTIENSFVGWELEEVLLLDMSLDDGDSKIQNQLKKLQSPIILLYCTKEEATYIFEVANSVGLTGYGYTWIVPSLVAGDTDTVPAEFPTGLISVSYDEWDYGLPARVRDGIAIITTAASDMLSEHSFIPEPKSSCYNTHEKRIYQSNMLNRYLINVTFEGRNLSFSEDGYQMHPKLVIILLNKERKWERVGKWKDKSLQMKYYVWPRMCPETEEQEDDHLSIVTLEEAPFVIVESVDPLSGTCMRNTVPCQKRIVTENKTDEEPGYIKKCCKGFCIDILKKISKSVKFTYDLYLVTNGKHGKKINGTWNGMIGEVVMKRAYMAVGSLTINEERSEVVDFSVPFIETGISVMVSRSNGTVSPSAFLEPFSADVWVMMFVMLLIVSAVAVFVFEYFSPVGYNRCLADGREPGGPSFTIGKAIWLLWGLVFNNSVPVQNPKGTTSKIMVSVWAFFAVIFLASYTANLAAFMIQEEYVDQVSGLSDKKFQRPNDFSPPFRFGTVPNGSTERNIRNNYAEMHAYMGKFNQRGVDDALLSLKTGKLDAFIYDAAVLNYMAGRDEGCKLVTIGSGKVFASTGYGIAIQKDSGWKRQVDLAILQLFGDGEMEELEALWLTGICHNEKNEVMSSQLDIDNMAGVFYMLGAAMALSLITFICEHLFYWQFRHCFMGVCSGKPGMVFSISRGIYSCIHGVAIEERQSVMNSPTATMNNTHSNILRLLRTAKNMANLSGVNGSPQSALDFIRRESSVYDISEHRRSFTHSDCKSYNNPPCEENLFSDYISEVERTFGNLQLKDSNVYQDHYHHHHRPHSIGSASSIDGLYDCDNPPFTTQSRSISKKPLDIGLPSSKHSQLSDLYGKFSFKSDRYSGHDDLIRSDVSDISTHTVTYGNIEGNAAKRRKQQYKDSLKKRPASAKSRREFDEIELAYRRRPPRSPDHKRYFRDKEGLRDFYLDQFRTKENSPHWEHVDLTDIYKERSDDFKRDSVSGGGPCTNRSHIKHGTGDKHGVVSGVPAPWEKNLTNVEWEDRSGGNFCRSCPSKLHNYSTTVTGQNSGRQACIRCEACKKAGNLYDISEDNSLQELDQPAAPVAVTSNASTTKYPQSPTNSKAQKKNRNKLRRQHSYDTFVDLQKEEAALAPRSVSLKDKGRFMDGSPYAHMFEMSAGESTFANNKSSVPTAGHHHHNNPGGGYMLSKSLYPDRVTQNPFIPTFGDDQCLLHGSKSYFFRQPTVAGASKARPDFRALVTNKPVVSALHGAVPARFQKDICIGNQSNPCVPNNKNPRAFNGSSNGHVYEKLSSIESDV
assay summary: SAFETYscan NMDAR (1A/2B) Ion channel
Format: cell-based
conditions used: Blocker mode; reference compound; read-out: RC50 (the source's name)
outcome measure: IC50 (µM)
The response must be a number in µM with no trailing unit.

Query :: Given C[C@]12N[C@H](Cc3ccccc31)c1ccccc12 [MK 801, reference compound] , respond with its IC50.
Result :: 0.0528

* * *

System: PC12 cells
assay summary: PC12 cell neurotropic assay (neurite outgrowth)
Type: cell-based, rat
conditions used: 10 μM; two days; relative to NGF 50 ng/ml
Procedure: PC12 cells were grown in T-200 flasks in high glucose (4.5 gr/L) DMEM medium supplemented with 7% FCS, 7% horse serum and 1% penicillin and streptomycin. Cells were incubated at 37° C. in a humidified incubator containing 6% CO2. […] This experimental procedure contained two controls. […] In each experiment, after two and seven days, six cultures were evaluated for neurotropic effect. […] In order to assess neurotropic effect, the neurite outgrowth length in each culture was quantified. […]
outcome measure: Neurotropic effect Two Days NGF (%)
Express your answer in %, writing the number without its unit.

Solved cases below.
- C=C1C(CC=C(C)C)CCCC1CC(=O)OC (stereo not shown): 26.1
- C=CCC1CCC[C@@H](CCC(=O)O)C1=C (stereo partly shown): 84.8
- C=C(C)CC1CCCC(CC(=O)OC)C1=C (stereo not shown): 91.3

As a next step, examine the compound that follows.
Query :: Complete the entry with Neurotropic effect Two Days NGF (%) for C=C1C(CC=C(C)C)CCC[C@H]1CC(=O)O (stereo partly shown)
Result :: 30.4

* * *

Test system: PC12 cells
assay summary: PC12 cell neurotropic assay (neurite outgrowth)
Type: cell-based, rat
conditions used: 10 μM; PC12 cells; seven days of treatment; Df = fractal dimension of neurite outgrowth
outcome measure: Neurotropic effect (mean ± SE) Seven Days Df
Provide a numeric answer; units are not to be included.

A selection of reference data follows.
* C=C1C(CC=C(C)C)CCCC1CC(=O)OC (centres unmarked) [Compound 7] | 0.20
* C=CCC1CC(=C)C[C@@H](CC(=O)O)C1=C (some centres unmarked) [Compound 9] | 0.01
* C=C(C)CC1CCCC(CC(=O)OC)C1=C (centres unmarked) [Compound 5] | 0.20
* COC(=O)CC1CCCC(CC=C(C)C)C1=O (centres unmarked) [Compound 21] | 0.01
* C=CCC1CCC[C@@H](CCC(=O)O)C1=C (some centres unmarked) [Compound 13] | 0.45

Query :: State its Neurotropic effect (mean ± SE) Seven Days Df: C=CCC1CC(C(C)(C)C)C[C@@H](CC(=O)O)C1=C (some centres unmarked) [Compound 12]
Result :: 0.17

Query :: Entry C=C1C(CC=C(C)C)CCC[C@H]1CC(=O)O (some centres unmarked) [Compound 6] needs its Neurotropic effect (mean ± SE) Seven Days Df filled in; supply it.
Result :: 0.20

Query :: Tell me its Neurotropic effect (mean ± SE) Seven Days Df given C=CCC1CC(c2ccccc2)CC(CC(=O)OC)C1=C (centres unmarked) [Compound 11] as the entry.
Result :: 0.01

* * *

assay summary: Acute tolerance in mice, single iv dose
Assay type: in vivo
conditions used: C57BL/6, mouse, in vivo; male mice; predicted from the 250 mg/kg iv study; read-out: LD50 after single dose
outcome measure: LD50 at 30 days

Query :: Give LD50 at 30 days for C=CCC1CCC[C@@H](CCC(=O)O)C1=C (stereo partly shown)
Result :: > 2000 mg/kg

meta.source: patent US20200239398A1
